MEASURED ON: CDK6-CYCLIND3 (Homo sapiens)
Construct: purchased Carna
Sequence (Q00534 whole entry): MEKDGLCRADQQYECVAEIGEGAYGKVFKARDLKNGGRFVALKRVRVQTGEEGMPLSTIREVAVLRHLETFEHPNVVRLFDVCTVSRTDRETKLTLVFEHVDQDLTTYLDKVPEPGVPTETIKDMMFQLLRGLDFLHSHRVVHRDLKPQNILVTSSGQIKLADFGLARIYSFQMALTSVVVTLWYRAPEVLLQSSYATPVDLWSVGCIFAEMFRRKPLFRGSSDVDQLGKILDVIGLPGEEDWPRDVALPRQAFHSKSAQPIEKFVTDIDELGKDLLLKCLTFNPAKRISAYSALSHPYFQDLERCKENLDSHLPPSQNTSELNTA
Sequence (P30281 whole entry partner): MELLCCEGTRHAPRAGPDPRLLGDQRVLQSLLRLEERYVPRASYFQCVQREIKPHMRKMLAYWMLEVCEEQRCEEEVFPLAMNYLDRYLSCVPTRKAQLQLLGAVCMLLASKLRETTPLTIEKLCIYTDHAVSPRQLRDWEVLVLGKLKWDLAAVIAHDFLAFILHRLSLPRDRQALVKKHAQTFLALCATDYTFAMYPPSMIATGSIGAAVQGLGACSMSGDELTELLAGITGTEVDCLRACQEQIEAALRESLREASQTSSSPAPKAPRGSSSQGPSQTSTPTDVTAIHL
PROCEDURE TEXT: Microfluidic LabChip kinase inhibition assay, CDK6-CyclinD3
Assay type: biochemical
CONDITION PARAMETERS: Table 2; 300 μM ATP, 2 nM enzyme; read-out: CDK6 IC50
pIC50: −log10 of the molar value.
MEASUREMENT KIND: pIC50

{"COMPOUND": "CC(C)N1CCN(c2ccc(Nc3ncc4c(n3)N(C3CCCC3)C3(CC(=O)NC3=O)C4)cc2F)CC1 (stereo not shown) [Compound C82]", "RELATIONAL OPERATOR": "=", "RECORDED VALUE": 6.91}
{"COMPOUND": "CN1CCN(c2ccc(Nc3ncc4c(n3)N(C3CCCC3)C3(CCNC3=O)C4)cn2)CC1 (stereo not shown) [Compound C54]", "RELATIONAL OPERATOR": "=", "RECORDED VALUE": 6.38}
{"COMPOUND": "CN(C)CCOc1ccc(Nc2ncc3c(n2)N(C2CCCC2)C2(CCNC2=O)C3)nc1 (stereo not shown) [Compound C60]", "RELATIONAL OPERATOR": "=", "RECORDED VALUE": 5.47}
{"COMPOUND": "CN(C)CCOc1ccc(Nc2ncc3c(n2)N(C2CCCC2)C2(CC(=O)NC2=O)C3)cc1 (stereo not shown) [Compound C89]", "RELATIONAL OPERATOR": "=", "RECORDED VALUE": 6.25}
{"COMPOUND": "COc1ccc(CN2CCC3(Cc4cnc(Nc5ccc(N6CCN(C(C)C)CC6)cn5)nc4N3C3CCCC3)C2=O)cc1 (stereo not shown) [Compound C31]", "RELATIONAL OPERATOR": "<", "RECORDED VALUE": 4.52}
{"COMPOUND": "CN1CCN(c2ccc(Nc3ncc4c(n3)N(C3CCCC3)C3(CC(=O)N(C)C3=O)C4)nc2)CC1 (stereo not shown) [Compound C66]", "RELATIONAL OPERATOR": "<", "RECORDED VALUE": 4.52}
{"COMPOUND": "CC(C)N1CCN(c2ccc(Nc3ncc4c(n3)N(C3CCCC3)C3(CCNC3=O)C4)c(F)c2)CC1 (stereo not shown) [Compound C52]", "RELATIONAL OPERATOR": "<", "RECORDED VALUE": 4.52}

---

MEASURED ON: CDK1/B (Homo sapiens, UniProt P06493)
Sequence (P06493 whole entry): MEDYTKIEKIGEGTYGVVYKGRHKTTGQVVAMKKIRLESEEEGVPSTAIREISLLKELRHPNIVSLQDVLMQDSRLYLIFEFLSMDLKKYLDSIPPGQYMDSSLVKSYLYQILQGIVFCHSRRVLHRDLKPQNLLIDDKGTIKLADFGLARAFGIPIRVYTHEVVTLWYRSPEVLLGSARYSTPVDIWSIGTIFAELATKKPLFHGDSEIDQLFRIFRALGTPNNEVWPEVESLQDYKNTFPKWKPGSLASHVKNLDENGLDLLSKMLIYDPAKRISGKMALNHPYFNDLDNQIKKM
Sequence (P14635 whole entry partner): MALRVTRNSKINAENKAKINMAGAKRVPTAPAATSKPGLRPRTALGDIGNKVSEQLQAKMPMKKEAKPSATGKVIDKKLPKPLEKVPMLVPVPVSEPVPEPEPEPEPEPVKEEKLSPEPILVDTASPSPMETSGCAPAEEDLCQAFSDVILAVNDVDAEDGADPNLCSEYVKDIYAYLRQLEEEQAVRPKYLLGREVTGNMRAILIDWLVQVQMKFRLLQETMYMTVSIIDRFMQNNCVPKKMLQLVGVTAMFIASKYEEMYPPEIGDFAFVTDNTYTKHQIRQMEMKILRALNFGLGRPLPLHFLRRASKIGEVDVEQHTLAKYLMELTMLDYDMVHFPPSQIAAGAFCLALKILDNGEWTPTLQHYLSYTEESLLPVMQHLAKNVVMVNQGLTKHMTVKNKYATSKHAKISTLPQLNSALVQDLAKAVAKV
PROCEDURE TEXT: Additional inhibition assay, CDK1/B
Format: biochemical
CONDITION PARAMETERS: Table 3b
IC50 values, listed per item

{"COMPOUND": "CN1CCC(c2ccc(Nc3ncc4c(n3)N(C3CCCC3)C3(CCNC3=O)C4)cc2)CC1 (stereo not shown) [Compound C164]", "IC50": "> 10 µM"}
{"COMPOUND": "CC(C)N1CC2(CN(c3ccc(Nc4ncc5c(n4)N(C4CCCC4)C4(CC(=O)NC4=O)C5)cc3)C2)C1 (stereo not shown) [Compound C150]", "IC50": "> 10 µM"}
{"COMPOUND": "CN(C)[C@H]1CCN(C(=O)c2ccc(Nc3ncc4c(n3)N(C3CCCC3)C3(CCNC3=O)C4)cc2)C1 (stereo partly shown) [Compound C178]", "IC50": "1.05 µM"}
{"COMPOUND": "O=C1NCCC12Cc1cnc(Nc3ccc(OCCN4CCCC4)nc3)nc1N2C1CCCC1 (stereo not shown) [Compound C170]", "IC50": "> 10 µM"}
